- Tested on: NCI-H1734
- method_description: relative viability (nuclei count vs DMSO), 5 days (fraction); higher = more cells survive
- assay_conditions: first compound 2.53 µM
Hi there, I'd appreciate the recorded relative viability for every entry that follows.
Answers are plain numbers.

Please review the entries below; each comes with its answer.
molecule	relative viability
CCCCCCCCCCCC1=C(O)C(=O)C=C(O)C1=O [Embelin] + N=C(N)NC(=N)NCCc1ccccc1 [Phenformin] (partner 250 µM)	0.526
CCCCCCCCCCCC1=C(O)C(=O)C=C(O)C1=O [Embelin] + O=C(CCCCCCC(=O)Nc1ccccc1)NO [Vorinostat] (partner 1 µM)	0.929
CCCCCCCCCCCC1=C(O)C(=O)C=C(O)C1=O [Embelin] + CS(=O)(=O)CCNCc1ccc(-c2ccc3ncnc(Nc4ccc(OCc5cccc(F)c5)c(Cl)c4)c3c2)o1 [Lapatinib] (partner 2 µM)	1.26

# evaluate next
Please give the measured relative viability for this molecule: CCCCCCCCCCCC1=C(O)C(=O)C=C(O)C1=O [Embelin] + Cc1nc(NC(=O)N2CCC[C@H]2C(N)=O)sc1-c1ccnc(C(C)(C)C(F)(F)F)c1 [Alpelisib] (partner 2 µM)
0.745

* * *

- Test system: NCI-H1651
- method_description: relative viability (nuclei count vs DMSO), 5 days (fraction); higher = more cells survive
- assay_conditions: first compound 0.03162 µM
API: label(entry) gives Y if the entry's relative viability is strictly smaller than 1; on equality or larger values it gives N.

compound	answer_label
CC(C)Oc1cc(Nc2nc(N[C@@H](C)c3ccc(F)cn3)ncc2Cl)n[nH]1 [AZ23] + O=C(c1cc(Cc2n[nH]c(=O)c3ccccc23)ccc1F)N1CCN(C(=O)C2CC2)CC1 [Olaparib] (partner 8 µM)	Y
CC(C)Oc1cc(Nc2nc(N[C@@H](C)c3ccc(F)cn3)ncc2Cl)n[nH]1 [AZ23] + CC1(C)CCC(c2ccc(Cl)cc2)=C(CN2CCN(c3ccc(C(=O)NS(=O)(=O)c4ccc(N[C@H](CCN5CCOCC5)CSc5ccccc5)c(S(=O)(=O)C(F)(F)F)c4)cc3)CC2)C1 [Navitoclax] (partner 0.5 µM)	N
CC(C)Oc1cc(Nc2nc(N[C@@H](C)c3ccc(F)cn3)ncc2Cl)n[nH]1 [AZ23] + Cc1cc(Nc2cc(N3CCN(C)CC3)nc(Sc3ccc(NC(=O)C4CC4)cc3)n2)n[nH]1 [Tozasertib] (partner 0.1 µM)	Y
CC(C)Oc1cc(Nc2nc(N[C@@H](C)c3ccc(F)cn3)ncc2Cl)n[nH]1 [AZ23] + Nc1ncn([C@H]2C[C@H](O)[C@@H](CO)O2)c(=O)n1 [Decitabine] (partner 2 µM)	Y

Moving on to another compound below.
relative viability strictly < 1 for this compound? CC(C)Oc1cc(Nc2nc(N[C@@H](C)c3ccc(F)cn3)ncc2Cl)n[nH]1 [AZ23] + CC(=O)c1c(C)c2cnc(Nc3ccc(N4CCNCC4)cn3)nc2n(C2CCCC2)c1=O [Palbociclib] (partner 0.5 µM)
Y

* * *

Give relative viability for every item shown.
- Test system: NCI-H647
- method_description: relative viability (nuclei count vs DMSO), 5 days (fraction); higher = more cells survive
- assay_conditions: first compound 4 µM
One number for each entry.

compound	recorded_endpoint	data_value
COc1cc(N2CCC(C(N)=O)CC2)ccc1Nc1nc(N)c(Cl)c(Nc2ccccc2S(=O)(=O)C(C)C)n1 [HG-5-88-01] + C[C@]1(O)C[C@@H](c2nc(-c3ccc4ccc(-c5ccccc5)nc4c3)c3c(N)nccn32)C1 [Linsitinib] (partner 1 µM)	relative viability	1.12
Clc1ccc(Nc2nnc(Cc3ccncc3)c3ccccc23)cc1 [Vatalanib] + Cc1cc(Nc2cc(N3CCN(C)CC3)nc(Sc3ccc(NC(=O)C4CC4)cc3)n2)n[nH]1 [Tozasertib] (partner 0.1 µM)	relative viability	0.259
Clc1ccc(Nc2nnc(Cc3ccncc3)c3ccccc23)cc1 [Vatalanib] + CS(=O)(=O)CCNCc1ccc(-c2ccc3ncnc(Nc4ccc(OCc5cccc(F)c5)c(Cl)c4)c3c2)o1 [Lapatinib] (partner 2 µM)	relative viability	1.04
C[C@@H]1CN(CC(=O)Nc2ccc3c(c2)Cc2cccc(-c4cc(=O)cc(N5CCOCC5)o4)c2S3)C[C@H](C)O1 + NC(=O)Nc1cc(-c2cccc(F)c2)sc1C(=O)N[C@H]1CCCNC1 [AZD7762] (partner 0.2 µM)	relative viability	0.309
COc1cc(N2CCC(C(N)=O)CC2)ccc1Nc1nc(N)c(Cl)c(Nc2ccccc2S(=O)(=O)C(C)C)n1 [HG-5-88-01] + Nc1nc2[nH]cc(CCc3ccc(C(=O)N[C@@H](CCC(=O)O)C(=O)O)cc3)c2c(=O)[nH]1 [Pemetrexed] (partner 0.2 µM)	relative viability	0.157
Clc1ccc(Nc2nnc(Cc3ccncc3)c3ccccc23)cc1 [Vatalanib] + CC(=O)c1c(C)c2cnc(Nc3ccc(N4CCNCC4)cn3)nc2n(C2CCCC2)c1=O [Palbociclib] (partner 0.5 µM)	relative viability	0.386
COc1cc(N2CCC(C(N)=O)CC2)ccc1Nc1nc(N)c(Cl)c(Nc2ccccc2S(=O)(=O)C(C)C)n1 [HG-5-88-01] + CCNC(=O)c1noc(-c2cc(C(C)C)c(O)cc2O)c1-c1ccc(CN2CCOCC2)cc1 [Luminespib] (partner 0.01 µM)	relative viability	0.248
C[C@@H]1CN(CC(=O)Nc2ccc3c(c2)Cc2cccc(-c4cc(=O)cc(N5CCOCC5)o4)c2S3)C[C@H](C)O1 + CS(=O)(=O)N1CCN(Cc2cc3nc(-c4cccc5[nH]ncc45)nc(N4CCOCC4)c3s2)CC1 [Pictilisib] (partner 1 µM)	relative viability	0.393

// moving on: another record for relative viability
// lookup relative viability for C[C@@H]1CN(CC(=O)Nc2ccc3c(c2)Cc2cccc(-c4cc(=O)cc(N5CCOCC5)o4)c2S3)C[C@H](C)O1 + Cc1cc(Nc2cc(N3CCN(C)CC3)nc(Sc3ccc(NC(=O)C4CC4)cc3)n2)n[nH]1 [Tozasertib] (partner 0.1 µM)
0.192

// data source = the supplement of paper PMC10307832
